# System: XIP peptide (Xip251-270)
# experimentNotes: small-molecule binders of XIP peptide, primary screen, biochemical, small-molecule microarray, fluorescence 635/667 nm, 0.5 µg/mL protein (AID 1183)
# protocolConditions: small-molecule microarray binding, fluorescence 635 nm; higher = more signal
propertyName: composite z-score
One number for each entry.

Here is how some molecules turned out for composite z-score.
molecule: O=C1C2C=CC(C(O)c3cc(C(F)(F)F)cc(C(F)(F)F)c3)N(Nc3ccc([N+](=O)[O-])cc3)C2C(=O)N1c1ccccc1 (stereo not drawn)
targetOrSystem: XIP peptide (Xip251-270)
composite z-score: 0.802
--
molecule: Cc1ccc(S[C@]2(C(=O)O)CC(=O)N(Cc3ccccc3Cl)[C@@H]2c2ccc(CO)cc2)cc1
targetOrSystem: XIP peptide (Xip251-270)
composite z-score: -0.0477
--
molecule: COC(=O)C1(Cc2ccccc2)C=C2C(=C(C(C)C)C(=O)C2C)CN1 (stereo not drawn)
targetOrSystem: XIP peptide (Xip251-270)
composite z-score: 0.648

Below is a list of molecules. For each, state its recorded composite z-score.
1. [N-]=[N+]=Nc1ccccc1C[C@]1(C(=O)NCc2ccccc2)N=C(c2ccc(OCCCO)cc2)O[C@H]1c1ccccc1
2. O=C1C[C@@](C(=O)NCC(F)(F)F)(c2ccc([N+](=O)[O-])cc2)[C@@H](c2ccc(CO)cc2)N1C1CCCCC1
3. O=c1cccc(-c2ccc(C(F)(F)F)cc2)o1
4. NC(=O)NCC#Cc1ccc2c(c1)[C@]1(C(=O)N2)[C@H](c2ccc(O)cc2)N2[C@H](c3ccccc3)[C@H](c3ccccc3)OC(=O)[C@H]2[C@@H]1C(=O)Nc1nc2ccccc2s1
5. C=CCN1C(=O)[C@]2(CC=C)N=C(c3ccc(OCCCO)cc3)O[C@@H]2c2ccccc21

Ans.
[0.813, 0.871, -0.256, 0.453, 0.707]

----------
# experimentNotes: PSAC antagonists in infected red cells, primary screen, cell-based, P. falciparum Indochina, OD700, 18 h (AID 1157)
# protocolConditions: P. falciparum Indochina infected erythrocytes, osmotic lysis OD700, 18 h; higher = more signal, called active from +8 up or from −8 down
Class (required): determined from z-score; valid ranges are group 1 (below -0.02), group 2 (-0.02 to below 0.7), group 3 (0.7 or more)

compound: COc1ccc(C(O)C2C=CC3C(=O)N(Cc4ccccc4)C(=O)C3N2n2cnnc2)c2ccccc12 (stereo unspecified)
answerLabel: group 1

compound: O=C1NCC(=O)N2[C@@H]1C[C@@H](C(=O)O)[C@H]2c1ccc(O)cc1
answerLabel: group 2

compound: CCCCC(CC)C(O)C1C=CC2C(=O)N(c3ccccc3)C(=O)C2N1Nc1ccc([N+](=O)[O-])cc1 (stereo unspecified)
answerLabel: group 2

compound: CCCCN1CC=CC23O[C@@H]4C=CCOC(=O)[C@@H]4[C@H]2C(=O)N(CCCO)[C@@H]3C1=O (stereo partly specified)
answerLabel: group 1

compound: COc1ccc([Si](C)(C)[C@@H]2[C@@H](CC(=O)N3CCC[C@H]3CO)O[C@]3(C(=O)N(Cc4ccc(N5C(=O)c6cccc7cccc5c67)cc4)c4ccccc43)[C@H]2C)cc1
answerLabel: group 3

compound: COC(=O)[C@@]1(Cc2ccc(OC)cc2)[C@H]2c3cc(C(=O)N(C)C)n(Cc4nc5ccccc5[nH]4)c3C[C@H]2CN1C(=O)c1ccccc1
answerLabel: group 3

compound: O=C1NC(=O)C2C1C=CC(C(O)c1ccc(Br)cc1)N2Nc1ccccn1 (stereo unspecified)
answerLabel: group 1

compound: CN(C)CCCCNC(=O)[C@H]1C[C@H]2C(=O)N3CCC[C@H]3C(=O)N2[C@H]1c1ccc(O)cc1
answerLabel: group 1

Qu. Which category does the recorded z-score put C[N+](C)(C)CCCC[C@@H]1NC(=O)[C@@H]2C[C@H](C(=O)O)[C@H](c3ccc(O)cc3)N2C1=O in?
Ans. group 2
